Reference source for all entries: ChEMBL document CHEMBL5236651

- System: Staphylococcus aureus
- MEASUREMENT_PROTOCOL: Antibacterial activity against methicillin-sensitive Staphylococcus aureus 16-1 assessed as inhibition of bacterial growth by CLSI based micro broth double dilution method
- Assay type: functional
READOUT_NAME: MIC (µg/mL)
Could you give me the number in µg/mL? Just the number is fine.

Please review the entries below; each comes with its answer.
Prompt: Item CC[C@H]1OC(=O)[C@@](C)(F)C(=O)[C@H](C)[C@@H](O[C@@H]2O[C@H](C)C[C@H](N(C)C)[C@H]2O)[C@@](C)(OC)C[C@@H](C)C(=O)[C@H](C)[C@H]2N(CCCN(C(=O)/C=C/c3ccccc3)c3cnc4ccccc4c3)C(=O)O[C@]12C : provide MIC
Response: 1

Prompt: Item CC[C@H]1OC(=O)[C@@](C)(F)C(=O)[C@H](C)[C@@H](O[C@@H]2O[C@H](C)C[C@H](N(C)C)[C@H]2O)[C@@](C)(OC)C[C@@H](C)C(=O)[C@H](C)[C@H]2N(CCCN(C(=O)c3ccccc3)c3ccnc4ccccc34)C(=O)O[C@]12C : provide MIC
Response: 0.5

Prompt: Item CC[C@H]1OC(=O)[C@H](C)C(=O)[C@H](C)[C@@H](O[C@@H]2O[C@H](C)C[C@H](N(C)C)[C@H]2O)[C@](C)(OC)C[C@@H](C)C(=O)[C@H](C)[C@H]2N(CCCCn3cnc(-c4cccnc4)c3)C(=O)O[C@]12C : provide MIC
Response: 0.25

Prompt: Item CC[C@H]1OC(=O)[C@@](C)(F)C(=O)[C@H](C)[C@@H](O[C@@H]2O[C@H](C)C[C@H](N(C)C)[C@H]2O)[C@@](C)(OC)C[C@@H](C)C(=O)[C@H](C)[C@H]2N(CCCN(C)c3ccnc4ccccc34)C(=O)O[C@]12C : provide MIC
Response: 0.5

Prompt: Item CC[C@H]1OC(=O)[C@@](C)(F)C(=O)[C@H](C)[C@@H](O[C@@H]2O[C@H](C)C[C@H](N(C)C)[C@H]2O)[C@@](C)(OC)C[C@@H](C)C(=O)[C@H](C)[C@H]2N(CCCN(Cc3ccccc3)c3cnc4ccccc4c3)C(=O)O[C@]12C : provide MIC
Response: 0.5

New cases:
Prompt: Item CC[C@H]1OC(=O)[C@@](C)(F)C(=O)[C@H](C)[C@@H](O[C@@H]2O[C@H](C)C[C@H](N(C)C)[C@H]2O)[C@@](C)(OC)C[C@@H](C)C(=O)[C@H](C)[C@H]2N(CCCNc3ccnc4ccccc34)C(=O)O[C@]12C : provide MIC
Response: 0.12

Prompt: Item CC[C@H]1OC(=O)[C@H](C)[C@@H](O[C@H]2C[C@@](C)(OC)[C@@H](O)[C@H](C)O2)[C@H](C)[C@@H](O[C@@H]2O[C@H](C)C[C@H](N(C)C)[C@H]2O)[C@](C)(OC)C[C@@H](C)C(=O)[C@H](C)[C@@H](O)[C@]1(C)O : provide MIC
Response: 0.25

Prompt: Item CC[C@H]1OC(=O)[C@@](C)(F)C(=O)[C@H](C)[C@@H](O[C@@H]2O[C@H](C)C[C@H](N(C)C)[C@H]2O)[C@@](C)(OC)C[C@@H](C)C(=O)[C@H](C)[C@H]2N(CCCN(C(=O)/C=C/c3ccccc3)c3ccnc4ccccc34)C(=O)O[C@]12C : provide MIC
Response: 0.5
